- Run Description: Static equilibrium solubility of HCQS in supercritical carbon dioxide (UV-vis spectrophotometer)
- Type: physicochemical
- Measurement Context: thermodynamic from solid, scCO2, 338 K, 150 bar; read-out: Equilibrium solubility, S
- Description: SCF-solubility of the drugs was experimentally measured via two broad classes of saturated solution-based methods, where solubility measurement can be done either (1) statically or (2) dynamically. […] The solubilities were measured with the help of an equilibrium cell. Thermodynamically, the method employed may be regarded as an isobaric-isothermal method. […]
Structures can show the parent of a compound that is named as a salt.
Measured Parameter: solubility thermodynamic at 1 h (µg/mL)
Reply numerically in µg/mL, unit not repeated.

Report measured solubility thermodynamic at 1 h; entry is CCN(CCO)CCCC(C)Nc1ccnc2cc(Cl)ccc12 (stereo not shown) [HCQS, Hydroxychloroquine sulfate]
126
